# assayed-target: catalytic domain (JH1, amino acids 826-1132) of human JAK2 (Homo sapiens (Human), UniProt O60674)
# Sequence (O60674 826-1132): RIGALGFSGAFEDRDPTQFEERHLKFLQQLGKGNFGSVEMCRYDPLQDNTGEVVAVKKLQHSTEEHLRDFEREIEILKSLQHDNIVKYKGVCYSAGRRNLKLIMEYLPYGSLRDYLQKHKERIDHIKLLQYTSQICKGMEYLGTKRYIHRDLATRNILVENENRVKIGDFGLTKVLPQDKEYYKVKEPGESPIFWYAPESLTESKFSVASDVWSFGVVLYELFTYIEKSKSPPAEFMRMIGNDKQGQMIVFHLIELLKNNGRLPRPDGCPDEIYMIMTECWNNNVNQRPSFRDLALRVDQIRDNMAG
# run-description: JAK2 LanthaScreen JH1 Binding Assay
# setup-conditions: JAK2 JH1 1.5 nM, 50 nM fluorescent tracer, 2 hours at 25° C.; read-out: JH1 BIND IC50
Where a name gives a salt, the structure may show the parent alone.
parameter-measured: IC50

Check out these entries, answers already filled in.
1. CN1C(=O)NCc2c1cnc1[nH]c(-c3ccc(CN4CCC(S(C)(=O)=O)CC4)cc3)cc21 [Example 1]
≤ 100 nM
2. COc1ccc(-c2c(-c3ccc(CN4CCC(S(C)(=O)=O)CC4)cc3)[nH]c3ncc4c(c23)CN(c2ccc(C(=O)Nc3cccnc3)cc2)C(=O)N4C)cc1 [Example 11, Bistrifluoroacetic Acid Salt]
> 2500 nM

// query Return reported IC50. Input compound: CNS(=O)(=O)c1ccc(-c2c(-c3ccc(CN4CCC(S(C)(=O)=O)CC4)cc3)[nH]c3ncc4c(c23)CN(C(C)(C)C)C(=O)N4C)cc1 [Example 17, trifluoroacetic acid salt]
// result ≤ 100 nM

###

Recorded pIC50 values for a group of molecules are listed next.
# assayed-target: catalytic domain (JH1, amino acids 808-1132) of human JAK2 (Homo sapiens (Human), UniProt O60674)
# Sequence (O60674 808-1132): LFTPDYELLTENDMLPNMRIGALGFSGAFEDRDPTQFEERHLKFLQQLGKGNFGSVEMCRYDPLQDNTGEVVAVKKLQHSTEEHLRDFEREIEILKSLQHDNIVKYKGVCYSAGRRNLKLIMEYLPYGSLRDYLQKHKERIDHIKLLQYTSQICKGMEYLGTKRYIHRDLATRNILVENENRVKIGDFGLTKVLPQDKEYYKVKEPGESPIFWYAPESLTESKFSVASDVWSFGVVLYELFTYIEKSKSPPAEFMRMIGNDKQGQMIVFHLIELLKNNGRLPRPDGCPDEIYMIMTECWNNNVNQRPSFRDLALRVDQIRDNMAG
# run-description: JAK2 HTRF Enzyme Activity Assay
# setup-conditions: JAK2 0.015 nM, ATP (30 μM or 1 mM), 60 minutes at 25° C.
pIC50: −log10 of the molar value. Where a name gives a salt, the structure may show the parent alone.

Check out these entries, answers already filled in.
1. COc1ccc(-c2c(-c3ccc(CN4CCC(S(C)(=O)=O)CC4)cc3)[nH]c3ncc4c(c23)CN(c2ccc(C(=O)NCC(=O)NNCc3ccccc3)cc2)C(=O)N4C)cc1 [Example 13, TFA]
5.60 to 6.00
2. COCCNc1ccc(N2Cc3c(cnc4[nH]c(-c5ccc(CN6CCC(S(C)(=O)=O)CC6)cc5)cc34)N(C)C2=O)cc1
6.30 to 7.00
3. CN1C(=O)N(c2ccc(C(=O)O)cc2)Cc2c1cnc1[nH]c(-c3ccc(CN4CCC(S(C)(=O)=O)CC4)cc3)cc21
5.60 to 6.00
4. CN1C(=O)N(c2ccc(NC(=O)CC#N)cc2)Cc2c1cnc1[nH]c(-c3ccc(CN4CCC(S(C)(=O)=O)CC4)cc3)cc21
6.30 to 7.00
5. CC(C(N)=O)n1cc(-c2ccc(-c3c(-c4ccc(CN5CCC(S(C)(=O)=O)CC5)cc4)[nH]c4ncc5c(c34)CN(C(C)(C)C)C(=O)N5C)cc2)cn1 (racemic) [Example 19, Trifluoroacetic Acid Salt]
≥ 7.00

// query Return reported pIC50. Input molecule: CNC(=O)c1ccc(N2Cc3c(cnc4[nH]c(-c5ccc(CN6CCC(S(C)(=O)=O)CC6)cc5)c(-c5ccc(OC)cc5)c34)N(C)C2=O)cc1
// result 5.60 to 6.00

// query Return reported pIC50. Input molecule: CN1C(=O)N(c2ccc(C(=O)O)cc2)Cc2c1cnc1[nH]c(-c3ccc(CN4CCC(S(C)(=O)=O)CC4)cc3)c(-c3ccc(C4(N)CC4)cc3)c21
// result < 5.60

// query Return reported pIC50. Input molecule: COc1ccc(-c2c(-c3ccc(CN4CCC(S(C)(=O)=O)CC4)cc3)[nH]c3ncc4c(c23)CN(c2ccc(C(=O)Nc3cccnc3)cc2)C(=O)N4C)cc1 [Example 11, Bistrifluoroacetic Acid Salt]
// result < 5.60

Entry source: patent US11661422B2
